Target: full-length beta-Catenin (Uniprot ID P35222) (Homo sapiens)
Construct: 10 nM full-length beta-Catenin (Uniprot ID P35222)
Sequence (P35222 1-781): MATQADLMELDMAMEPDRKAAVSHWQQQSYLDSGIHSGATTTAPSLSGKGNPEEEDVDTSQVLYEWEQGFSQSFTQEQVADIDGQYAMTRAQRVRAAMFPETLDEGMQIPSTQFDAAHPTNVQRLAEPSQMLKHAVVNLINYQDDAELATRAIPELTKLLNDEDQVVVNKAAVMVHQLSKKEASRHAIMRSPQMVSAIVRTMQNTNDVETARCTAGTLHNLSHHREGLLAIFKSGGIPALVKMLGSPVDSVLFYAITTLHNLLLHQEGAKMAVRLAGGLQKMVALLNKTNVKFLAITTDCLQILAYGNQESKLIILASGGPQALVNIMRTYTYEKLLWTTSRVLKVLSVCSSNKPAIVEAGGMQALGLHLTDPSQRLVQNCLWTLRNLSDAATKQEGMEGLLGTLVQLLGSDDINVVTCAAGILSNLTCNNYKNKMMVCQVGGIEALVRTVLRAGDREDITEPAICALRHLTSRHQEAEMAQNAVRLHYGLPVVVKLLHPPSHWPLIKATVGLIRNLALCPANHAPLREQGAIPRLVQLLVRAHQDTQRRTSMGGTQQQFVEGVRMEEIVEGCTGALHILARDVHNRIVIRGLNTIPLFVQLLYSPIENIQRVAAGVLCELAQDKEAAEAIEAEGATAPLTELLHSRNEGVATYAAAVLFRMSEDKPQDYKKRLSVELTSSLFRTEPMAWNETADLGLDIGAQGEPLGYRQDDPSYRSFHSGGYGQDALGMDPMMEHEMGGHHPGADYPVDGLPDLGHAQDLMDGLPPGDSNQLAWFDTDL
Experiment: Fluorescence polarization IC50 (beta-catenin / 5FAM-TCF4 10-53 competition)
Format: binding
Conditions: fluorescence polarization; read-out: beta-Catenin FP IC50
readout_label: pIC50
The scale used: pIC50 is minus the common logarithm of the concentration in molar units.

[
  {
    "compound": "CC(=O)N1CCC[C@]12CC=CCCCC1(CCCC=CCCCOC(=O)N3CC[C@@](C(=O)N[C@@H](Cc4ccccc4)C(=O)N[C@@H](Cc4csc5ccccc45)C(=O)N[C@@H](CCO)C(N)=O)(C3)NC(=O)[C@H](CC(N)=O)NC(=O)[C@H](Cc3cscn3)NC(=O)[C@H](C)NC(=O)[C@H](CCCCNC(C)C)NC(=O)[C@H](CCC(N)=O)NC(=O)[C@H](CC(=O)O)NC1=O)NC(=O)[C@H](CC1CCCCC1)NC(=O)[C@H](CC(N)=O)NC2=O (stereo partly drawn) [I-2072]",
    "experimental_value": 5.08
  },
  {
    "compound": "CC(=O)N1CCC[C@]12CC=CCCCC1(CCCC=CCCCCCC[C@@](C)(C(=O)N[C@@H](Cc3ccccc3)C(=O)N[C@@H](Cc3csc4ccccc34)C(=O)N[C@@H](Cc3c[nH]cn3)C(N)=O)NC(=O)[C@H](CC(N)=O)NC(=O)[C@H](Cc3ccccc3)NC(=O)[C@H](C)NC(=O)[C@H](C)NC(=O)[C@H](CC(=O)O)NC(=O)[C@H](CC(=O)O)NC1=O)NC(=O)[C@H](CC(C)C)NC(=O)[C@H](CC(=O)O)NC2=O (stereo partly drawn) [I-565]",
    "experimental_value": 7.89
  }
]

Could you now look at the following compound, please?
The recorded pIC50 for CC(=O)N[C@]1(C)CCCCCCCCC2(CCCCCCCCOC(=O)N3CC[C@@](C(=O)N[C@@H](Cc4ccccc4C(F)(F)F)C(=O)N[C@@H](Cc4csc5ccccc45)C(=O)N[C@@H](CCC(N)=O)C(N)=O)(C3)NC(=O)[C@H](CC(C)C)NC(=O)[C@H](Cc3ccccc3)NC(=O)[C@H](C)NC(=O)[C@H](C)NC(=O)[C@H](Cc3cccc(C(=O)O)c3)NC(=O)[C@H](CC(=O)O)NC2=O)NC(=O)[C@H](CC(C)(C)C)NC(=O)[C@H](CC(=O)O)NC(=O)[C@H](C)NC1=O (stereo partly drawn) [I-2574] is 5.53
